Source: ChEMBL document CHEMBL4152336

study system: UniProt Q9HBX9
Assay type: functional, cell-based, HEK293
condition parameters: read-out: EC50
pEC50: −log10 of the molar value.
Recorded pEC50 for the following molecules

[
  {
    "smiles text": "O=C(Nc1cccc(C(F)(F)F)c1)c1ccccc1NC(=O)C1CCC1",
    "study system": "UniProt Q9HBX9",
    "pEC50": 5.53
  },
  {
    "smiles text": "CC(C)Oc1ccccc1C(=O)Nc1ccccc1C(=O)Nc1cccc(C(F)(F)F)c1",
    "study system": "UniProt Q9HBX9",
    "pEC50": 6.33
  },
  {
    "smiles text": "COc1cccc(OC)c1C(=O)Nc1ccccc1C(=O)Nc1cccc(C(F)(F)F)c1",
    "study system": "UniProt Q9HBX9",
    "pEC50": 5.13
  },
  {
    "smiles text": "CCOc1ccccc1C(=O)Nc1ccccc1C(=O)Nc1cccc(C(F)(F)F)c1",
    "study system": "UniProt Q9HBX9",
    "pEC50": 6.58
  },
  {
    "smiles text": "O=C(Cc1ccccc1)Nc1ccccc1C(=O)Nc1cccc(C(F)(F)F)c1",
    "study system": "UniProt Q9HBX9",
    "pEC50": 5.08
  }
]

###

study system: UniProt:Q9HBX9
Format: functional, cell-based, HEK293
condition parameters: read-out: EC50
pEC50: −log10 of the molar value.
Note to self: values exactly at 5 are Fulfilled. So pEC50 at or above 5 is Fulfilled, below is Not fulfilled.

[
  {
    "smiles text": "COCCOc1ccccc1C(=O)Nc1ccccc1C(=O)Nc1cccc(C(F)(F)F)c1",
    "label": "Fulfilled"
  },
  {
    "smiles text": "O=C(Nc1ccc(C(F)(F)F)cc1)c1ccccc1NC(=O)C1CCCCC1",
    "label": "Not fulfilled"
  },
  {
    "smiles text": "O=C(Nc1cccc(S(=O)(=O)C(F)(F)F)c1)c1ccccc1NC(=O)c1ccccc1OCC(F)(F)F",
    "label": "Fulfilled"
  },
  {
    "smiles text": "COc1ccccc1C(=O)Nc1ccccc1C(=O)Nc1cccc(S(=O)(=O)C(F)(F)F)c1",
    "label": "Fulfilled"
  },
  {
    "smiles text": "CCCOc1ccccc1C(=O)Nc1ccccc1C(=O)Nc1cccc(S(=O)(=O)C(F)(F)F)c1",
    "label": "Fulfilled"
  },
  {
    "smiles text": "O=C(Nc1ccccc1)c1ccccc1NC(=O)C1CCCCC1",
    "label": "Not fulfilled"
  },
  {
    "smiles text": "CCCCOc1ccccc1C(=O)Nc1ccccc1C(=O)Nc1cccc(S(=O)(=O)C(F)(F)F)c1",
    "label": "Fulfilled"
  },
  {
    "smiles text": "CC(C)(C)c1cccc(NC(=O)c2ccccc2NC(=O)C2CCCCC2)c1",
    "label": "Fulfilled"
  },
  {
    "smiles text": "O=C(Nc1ccccc1C(=O)Nc1cccc(C(F)(F)F)c1)c1ccccc1Cl",
    "label": "Fulfilled"
  }
]

###

study system: Relaxin receptor 1 (Homo sapiens) (UniProt Q9HBX9)
Format: functional, cell-based
condition parameters: HEK293
The source made the active and inactive calls. The rule behind the calls is not given here.
result type: Efficacy

[
  {
    "smiles text": "O=C(Nc1ccccc1C(=O)Nc1cccc(C(F)(F)F)c1)c1cccnc1",
    "measured": "95%"
  },
  {
    "smiles text": "O=C(Nc1cccc(-c2ccccc2)c1)c1ccccc1NC(=O)C1CCCCC1",
    "measured": "inactive"
  },
  {
    "smiles text": "CC(C)(C)c1cccc(NC(=O)c2ccccc2NC(=O)C2CCCCC2)c1",
    "measured": "70%"
  },
  {
    "smiles text": "O=C(Nc1cccc(-c2ccccc2C(F)(F)F)c1)c1ccccc1NC(=O)C1CCCCC1",
    "measured": "74%"
  },
  {
    "smiles text": "COc1ccccc1C(=O)Nc1cccc(C(=O)Nc2cccc(C(F)(F)F)c2)c1",
    "measured": "inactive"
  },
  {
    "smiles text": "COCCOc1ccccc1C(=O)Nc1ccccc1C(=O)Nc1cccc(C(F)(F)F)c1",
    "measured": "98%"
  },
  {
    "smiles text": "O=C(Nc1cccc(S(=O)(=O)C(F)(F)F)c1)c1ccccc1NC(=O)c1ccccc1OCC(F)(F)F",
    "measured": "97%"
  },
  {
    "smiles text": "O=C(Nc1ccccc1)c1ccccc1NC(=O)C1CCCCC1",
    "measured": "57%"
  },
  {
    "smiles text": "O=C(Nc1cccc(Br)c1)c1ccccc1NC(=O)C1CCCCC1",
    "measured": "91%"
  },
  {
    "smiles text": "COc1cccc(C(=O)Nc2ccccc2C(=O)Nc2cccc(C(F)(F)F)c2)c1",
    "measured": "94%"
  }
]

###

study system: Relaxin receptor 1 (Homo sapiens) (UniProt Q9HBX9)
Sequence (whole entry): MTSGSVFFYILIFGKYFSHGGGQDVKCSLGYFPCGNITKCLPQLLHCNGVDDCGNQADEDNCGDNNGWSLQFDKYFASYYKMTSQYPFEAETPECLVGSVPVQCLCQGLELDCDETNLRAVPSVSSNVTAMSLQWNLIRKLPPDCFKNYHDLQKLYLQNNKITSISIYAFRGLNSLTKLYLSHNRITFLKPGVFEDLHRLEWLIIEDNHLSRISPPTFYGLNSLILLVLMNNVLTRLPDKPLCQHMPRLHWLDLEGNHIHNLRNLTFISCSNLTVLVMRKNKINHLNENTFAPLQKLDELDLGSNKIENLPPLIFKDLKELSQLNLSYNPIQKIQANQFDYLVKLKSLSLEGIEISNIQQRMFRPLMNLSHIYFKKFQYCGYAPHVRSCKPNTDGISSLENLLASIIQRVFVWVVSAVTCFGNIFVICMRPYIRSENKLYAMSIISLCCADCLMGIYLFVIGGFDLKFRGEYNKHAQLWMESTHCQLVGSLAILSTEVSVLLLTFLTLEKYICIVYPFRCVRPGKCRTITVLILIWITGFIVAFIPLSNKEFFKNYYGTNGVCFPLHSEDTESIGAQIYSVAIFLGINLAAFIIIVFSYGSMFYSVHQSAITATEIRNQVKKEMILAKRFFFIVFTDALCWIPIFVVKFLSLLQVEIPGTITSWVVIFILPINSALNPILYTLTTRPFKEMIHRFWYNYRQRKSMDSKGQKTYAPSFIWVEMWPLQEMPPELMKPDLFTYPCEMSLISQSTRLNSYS
Format: functional, cell-based
condition parameters: HEK293
Activity calls are given as the source filed them. No cut-off for these calls is given here.
result type: Efficacy

[
  {
    "smiles text": "COc1ccccc1C(=O)N(C)c1ccccc1C(=O)Nc1cccc(C(F)(F)F)c1",
    "study system": "Relaxin receptor 1 (Homo sapiens) (UniProt Q9HBX9)",
    "result type": "Efficacy",
    "measured": "inactive"
  },
  {
    "smiles text": "CN(C)CCOc1ccccc1C(=O)Nc1ccccc1C(=O)Nc1cccc(C(F)(F)F)c1",
    "study system": "Relaxin receptor 1 (Homo sapiens) (UniProt Q9HBX9)",
    "result type": "Efficacy",
    "measured": "92%"
  },
  {
    "smiles text": "O=C(Nc1cccc(SC(F)(F)F)c1)c1ccccc1NC(=O)C1CCCCC1",
    "study system": "Relaxin receptor 1 (Homo sapiens) (UniProt Q9HBX9)",
    "result type": "Efficacy",
    "measured": "90%"
  },
  {
    "smiles text": "O=C(Nc1cccc(C(F)(F)F)c1)c1ccccc1NC(=O)C1CC1",
    "study system": "Relaxin receptor 1 (Homo sapiens) (UniProt Q9HBX9)",
    "result type": "Efficacy",
    "measured": "79%"
  },
  {
    "smiles text": "Cc1ccccc1NC(=O)c1ccccc1NC(=O)C1CCCCC1",
    "study system": "Relaxin receptor 1 (Homo sapiens) (UniProt Q9HBX9)",
    "result type": "Efficacy",
    "measured": "inactive"
  }
]

###

study system: UniProt:Q9HBX9
Assay type: functional, cell-based, HEK293
condition parameters: read-out: EC50
Recorded EC50 for the following molecules

[
  {
    "smiles text": "CCOc1ccccc1C(=O)Nc1ccncc1C(=O)Nc1cccc(S(=O)(=O)C(F)(F)F)c1",
    "EC50 [nM]": 747
  },
  {
    "smiles text": "CSc1cccc(NC(=O)c2ccccc2NC(=O)C2CCCCC2)c1",
    "EC50 [nM]": 5290
  },
  {
    "smiles text": "O=C(Nc1cccc(S(=O)(=O)C(F)(F)F)c1)c1ccccc1NC(=O)C1CCCCC1",
    "EC50 [nM]": 1060
  },
  {
    "smiles text": "COc1ccc(C(=O)Nc2ccccc2C(=O)Nc2cccc(C(F)(F)F)c2)cc1",
    "EC50 [nM]": 9400
  },
  {
    "smiles text": "O=C(Nc1cccc(Br)c1)c1ccccc1NC(=O)C1CCCCC1",
    "EC50 [nM]": 2650
  },
  {
    "smiles text": "CCC(CC)C(=O)Nc1ccccc1C(=O)Nc1cccc(C(F)(F)F)c1",
    "EC50 [nM]": 5290
  },
  {
    "smiles text": "CCOc1ccccc1C(=O)Nc1cnccc1C(=O)Nc1cccc(S(=O)(=O)C(F)(F)F)c1",
    "EC50 [nM]": 2970
  },
  {
    "smiles text": "O=C(Nc1cccc(C(F)(F)F)c1)c1ccccc1NC(=O)C1CCCCC1",
    "EC50 [nM]": 1880
  },
  {
    "smiles text": "COc1ccccc1C(=O)Nc1ccccc1C(=O)N(C)c1cccc(C(F)(F)F)c1",
    "EC50 [nM]": 29700
  },
  {
    "smiles text": "O=C(Nc1cccc(C(F)(F)F)c1)c1ccccc1NC(=O)c1ccccc1OC(F)(F)F",
    "EC50 [nM]": 1180
  }
]
